Reference source for all entries: paper PMC9537309

Assay Target: T1, DND1 RRM12 (tandem RRMs) WT (human, UniProt Q8IYX4 12-235)
T1 sequence: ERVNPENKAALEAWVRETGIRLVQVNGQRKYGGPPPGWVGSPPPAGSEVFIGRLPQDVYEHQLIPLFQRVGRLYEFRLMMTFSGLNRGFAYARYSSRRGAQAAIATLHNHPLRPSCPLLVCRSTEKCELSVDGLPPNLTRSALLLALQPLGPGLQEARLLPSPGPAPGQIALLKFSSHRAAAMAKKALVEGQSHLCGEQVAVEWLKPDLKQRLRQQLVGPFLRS
Method Description: ITC; N = 1.04; text and Supplementary Table 2 print 0.68; ITC: 100 mM potassium phosphate pH 6.6, 1 mM 2-mercaptoethanol, 25 C; NMR: 100 mM potassium phosphate pH 6.6, 1 mM DTT, 298 K (or 20 mM MES pH 6.6, 100 mM NaCl); Supplementary Fig. 3: 25 mM NaCl, 2 mM DTT, pH 6.3, 303 K
Setup Conditions: protein: recombinant; tags: N-terminal 6xHis, TEV-cleaved; label: selective 13C-ribose in some structure samples; unlabeled in titrations
Quantity Measured: pKd
Expect pKd as a plain number equal to -log10 of the molar concentration.

[ask] Need pKd of CUUAUUUG (ssRNA) , thanks.
[reply] 6.16
